protocol: Phase 1 dose-escalation phase: plasma pharmacokinetics
Type: in vivo, human
condition: human, plasma, oral; single dose 120 mg (n = 11), mean (SD); read-out: MRT0-∞

molecule	result unit	MRT inf
COc1cc(N2CCC3(CCN(C)CC3)CC2)ccc1Nc1ncc(Cl)c(Nc2ccccc2P(C)(C)=O)n1	h	25.6

###

protocol: Phase 1 dose-escalation phase: plasma pharmacokinetics
Type: in vivo, human
condition: human, plasma, oral, 30 mg, multiple dosing 30 mg (n = 3), mean (SD); read-out: AUC0–24
experimental readout: AUC(0-t) (ng·h/mL)

molecule	value measured
COc1cc(N2CCC3(CCN(C)CC3)CC2)ccc1Nc1ncc(Cl)c(Nc2ccccc2P(C)(C)=O)n1 [WX-0593]	1150

###

protocol: Phase 1 dose-escalation phase: plasma pharmacokinetics
Type: in vivo, human
condition: human, plasma, oral; single dose 180 mg (n = 12), mean (SD); read-out: MRT0-∞

molecule	MRT inf
COc1cc(N2CCC3(CCN(C)CC3)CC2)ccc1Nc1ncc(Cl)c(Nc2ccccc2P(C)(C)=O)n1	27.9 h

###

protocol: Phase 1 dose-escalation phase: plasma pharmacokinetics
Assay type: in vivo, human
condition: human, plasma, oral; single dose 300 mg (n = 3), mean (SD); read-out: MRT0-∞
experimental readout: MRT inf (h)

molecule	result unit	value measured
COc1cc(N2CCC3(CCN(C)CC3)CC2)ccc1Nc1ncc(Cl)c(Nc2ccccc2P(C)(C)=O)n1	h	32.4

###

protocol: Phase 1 dose-escalation phase: plasma pharmacokinetics
Assay type: in vivo, human
condition: human, plasma, oral, 180 mg, single dose 180 mg (n = 12), mean (SD)

molecule	Tmax / h
COc1cc(N2CCC3(CCN(C)CC3)CC2)ccc1Nc1ncc(Cl)c(Nc2ccccc2P(C)(C)=O)n1	2.29

###

Test system: Ba/F3 SLC34A2-ROS1-G2032R
protocol: Growth of transfected Ba/F3 cells (CellTiter-Glo, 3 days)
Format: cell-based
condition: Mus musculus, BaF3
pIC50: −log10 of the molar value.
Rule: pIC50 under 6 gives No, otherwise Yes.

molecule	class
C[C@@H]1CN(C(=O)c2ccc(NC(=O)c3cc(O[C@H](C)c4c(Cl)ccc(F)c4Cl)c(N)nn3)cc2)C[C@H](C)N1	No
COc1cc(N2CCC3(CCN(C)CC3)CC2)ccc1Nc1ncc(Cl)c(Nc2ccccc2P(C)(C)=O)n1	Yes
C[C@H]1Oc2cc(cnc2N)-c2c(nn(C)c2C#N)CN(C)C(=O)c2ccc(F)cc21	Yes

###

protocol: Phase 1 dose-escalation phase: plasma pharmacokinetics
Assay type: in vivo, human
condition: human, plasma, oral, 300 mg, single dose 300 mg (n = 3), mean (SD)
experimental readout: Tmax (h)

compound	experimental readout	value measured
COc1cc(N2CCC3(CCN(C)CC3)CC2)ccc1Nc1ncc(Cl)c(Nc2ccccc2P(C)(C)=O)n1 [WX-0593]	Tmax	2.71

###

protocol: Phase 1 dose-escalation phase: plasma pharmacokinetics
Format: in vivo, human
condition: human, plasma, oral, 120 mg, multiple dosing 120 mg (n = 11), mean (SD); read-out: AUC0–24

compound	AUC(0-t) [ng·h/mL]
COc1cc(N2CCC3(CCN(C)CC3)CC2)ccc1Nc1ncc(Cl)c(Nc2ccccc2P(C)(C)=O)n1 [WX-0593]	6120

###

system name: Eta (Homo sapiens, UniProt P25101)
Sequence (P25101 21-427): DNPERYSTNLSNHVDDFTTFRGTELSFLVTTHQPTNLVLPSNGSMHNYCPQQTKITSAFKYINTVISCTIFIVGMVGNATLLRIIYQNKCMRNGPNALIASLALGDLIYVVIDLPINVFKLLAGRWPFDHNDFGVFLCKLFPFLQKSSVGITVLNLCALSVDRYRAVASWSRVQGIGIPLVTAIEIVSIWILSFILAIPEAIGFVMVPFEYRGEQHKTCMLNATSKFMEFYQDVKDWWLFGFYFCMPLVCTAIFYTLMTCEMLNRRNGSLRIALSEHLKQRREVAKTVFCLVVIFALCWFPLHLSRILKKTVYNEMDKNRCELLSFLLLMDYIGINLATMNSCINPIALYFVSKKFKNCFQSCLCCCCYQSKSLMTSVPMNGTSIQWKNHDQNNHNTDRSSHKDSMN
protocol: GPCR antagonist screening assay
pIC50: −log10 of the molar value.
experimental readout: pIC50

compound	value measured
COc1cc(N2CCC3(CCN(C)CC3)CC2)ccc1Nc1ncc(Cl)c(Nc2ccccc2P(C)(C)=O)n1 [WX-0593]	6.30

###

protocol: Metabolic stability in liver microsomes
Format: in vitro ADME
condition: Sprague-Dawley, rat; SD rats liver microsomes

molecule	CLint scaled
COc1cc(N2CCC3(CCN(C)CC3)CC2)ccc1Nc1ncc(Cl)c(Nc2ccccc2P(C)(C)=O)n1	< 17.3 mL/min/kg

###

protocol: Phase 1 dose-escalation phase: plasma pharmacokinetics
Assay type: in vivo, human
condition: human, plasma, oral; single dose 60 mg (n = 3), mean (SD)
experimental readout: Cmax (ng/mL)

molecule	experimental readout	result unit	value measured
COc1cc(N2CCC3(CCN(C)CC3)CC2)ccc1Nc1ncc(Cl)c(Nc2ccccc2P(C)(C)=O)n1	Cmax	ng/mL	305

###

Test system: 21 GPCR targets
protocol: GPCR agonist screening assay
Type: cell-based
condition: all 21 GPCR targets; highest dose detected
experimental readout: EC50

molecule	value measured
COc1cc(N2CCC3(CCN(C)CC3)CC2)ccc1Nc1ncc(Cl)c(Nc2ccccc2P(C)(C)=O)n1	> 133 µM

###

protocol: Phase 1 dose-escalation phase: plasma pharmacokinetics
Type: in vivo, human
condition: human, plasma, oral; single dose 60 mg (n = 3), mean (SD); read-out: MRT0-∞

molecule	MRT inf, h
COc1cc(N2CCC3(CCN(C)CC3)CC2)ccc1Nc1ncc(Cl)c(Nc2ccccc2P(C)(C)=O)n1	28.3

###

protocol: Phase 1 dose-escalation phase: plasma pharmacokinetics
Format: in vivo, human
condition: human, plasma, oral, 300 mg, multiple dosing 300 mg (n = 2), mean (SD); read-out: AUC0–24
experimental readout: AUC(0-t) (ng·h/mL)

molecule	value measured
COc1cc(N2CCC3(CCN(C)CC3)CC2)ccc1Nc1ncc(Cl)c(Nc2ccccc2P(C)(C)=O)n1	23400

###

protocol: Phase 1 dose-escalation phase: plasma pharmacokinetics
Type: in vivo, human
condition: human, plasma, oral; single dose 30 mg (n = 3), mean (SD)

molecule	AUC(0-inf), ng·h/mL
COc1cc(N2CCC3(CCN(C)CC3)CC2)ccc1Nc1ncc(Cl)c(Nc2ccccc2P(C)(C)=O)n1	1710

###

protocol: Phase 1 dose-escalation phase: plasma pharmacokinetics
Format: in vivo, human
condition: human, plasma, oral; single dose 120 mg (n = 11), mean (SD); read-out: T1/2z (converted)

molecule	half-life, min
COc1cc(N2CCC3(CCN(C)CC3)CC2)ccc1Nc1ncc(Cl)c(Nc2ccccc2P(C)(C)=O)n1 [WX-0593]	1340

###

protocol: Phase 1 dose-escalation phase: plasma pharmacokinetics
Type: in vivo, human
condition: human, plasma, oral, 120 mg, multiple dosing 120 mg (n = 11), mean (SD)

molecule	Tmax
COc1cc(N2CCC3(CCN(C)CC3)CC2)ccc1Nc1ncc(Cl)c(Nc2ccccc2P(C)(C)=O)n1	2.79 h

###

protocol: Phase 1 dose-escalation phase: plasma pharmacokinetics
Type: in vivo, human
condition: human, plasma, oral, 60 mg, multiple dosing 60 mg (n = 3), mean (SD)
experimental readout: Tmax (h)

molecule	value measured
COc1cc(N2CCC3(CCN(C)CC3)CC2)ccc1Nc1ncc(Cl)c(Nc2ccccc2P(C)(C)=O)n1 [WX-0593]	4.01

###

Test system: Ba/F3 ALK-I1171N
protocol: Growth of transfected Ba/F3 cells (CellTiter-Glo, 3 days)
Type: cell-based
condition: Mus musculus, BaF3; ALK-I1171N; read-out: IC50
pIC50: −log10 of the molar value.
experimental readout: pIC50

molecule	value measured
C[C@@H]1CN(C(=O)c2ccc(NC(=O)c3cc(O[C@H](C)c4c(Cl)ccc(F)c4Cl)c(N)nn3)cc2)C[C@H](C)N1 [Ensartinib]	7.74
Cc1cc(Nc2ncc(Cl)c(Nc3ccccc3S(=O)(=O)C(C)C)n2)c(OC(C)C)cc1C1CCNCC1 [Ceritinib]	7.38
COc1cc(N2CCC3(CCN(C)CC3)CC2)ccc1Nc1ncc(Cl)c(Nc2ccccc2P(C)(C)=O)n1 [WX-0593]	7.75

###

Test system: Ba/F3 ALK-I1171S
protocol: Growth of transfected Ba/F3 cells (CellTiter-Glo, 3 days)
Format: cell-based
condition: Mus musculus, BaF3, ALK-I1171S, first listing (r12); read-out: IC50

molecule	result unit	IC50
Cc1cc(Nc2ncc(Cl)c(Nc3ccccc3S(=O)(=O)C(C)C)n2)c(OC(C)C)cc1C1CCNCC1	nM	97
C[C@@H]1CN(C(=O)c2ccc(NC(=O)c3cc(O[C@H](C)c4c(Cl)ccc(F)c4Cl)c(N)nn3)cc2)C[C@H](C)N1	nM	39
COc1cc(N2CCC3(CCN(C)CC3)CC2)ccc1Nc1ncc(Cl)c(Nc2ccccc2P(C)(C)=O)n1	nM	32
